system: Escherichia coli TOP10; experiment: shrunken log2 fold change of peptide-encoding DNA abundance (4.5 h post-induction vs induction); higher = less antimicrobial activity (less host growth inhibition); details: time post-induction: 4.5 h; library: site-saturation at positions 5, 18, 19, 20
What shrunken log2 fold change was measured for each of the following?

Record excerpt, results attached:
>>> print(df.to_string())
                  sequence          measuredtarget               assayreadout  recordedresult
0  RRIRIRPPRLPRPRPRPCDCPRP  Escherichia coli TOP10  shrunken log2 fold change         -0.0657
1  RRIRTRPPRLPRPRPRPNHFPRP  Escherichia coli TOP10  shrunken log2 fold change          -0.316

# batch: return shrunken log2 fold change for each of the 6 sequences below
1. RRIRARPPRLPRPRPRPYKGPRP
2. RRIRERPPRLPRPRPRPCCNPRP
3. RRIRQRPPRLPRPRPRPRRDPRP
4. RRIRDRPPRLPRPRPRPPGKPRP
5. RRIRGRPPRLPRPRPRPFGCPRP
6. RRIRIRPPRLPRPRPRPWQKPRP

1. -0.144
2. -0.0562
3. 0.308
4. 0.176
5. -0.0567
6. 0.0223

# batch: return shrunken log2 fold change for each of the 6 sequences below
1. RRIRVRPPRLPRPRPRPSFDPRP
2. RRIRKRPPRLPRPRPRPTNTPRP
3. RRIRIRPPRLPRPRPRPNRMPRP
4. RRIRNRPPRLPRPRPRPRTNPRP
5. RRIRKRPPRLPRPRPRPQKQPRP
6. RRIRSRPPRLPRPRPRPLPPPRP

-0.269
1.79
-0.0394
-0.166
-0.0697
0.518

# batch: return shrunken log2 fold change for each of the 6 sequences below
1. RRIRYRPPRLPRPRPRPQYVPRP
2. RRIRFRPPRLPRPRPRPLNRPRP
3. RRIRDRPPRLPRPRPRPAKNPRP
4. RRIRDRPPRLPRPRPRPDWAPRP
5. RRIRCRPPRLPRPRPRPDWAPRP
6. RRIRARPPRLPRPRPRPSESPRP

1: -0.0294; 2: -0.196; 3: -0.119; 4: 0.534; 5: 0.0311; 6: 0.0591

====

system: Escherichia coli TOP10; experiment: shrunken log2 fold change of peptide-encoding DNA abundance (4.5 h post-induction vs induction); higher = less antimicrobial activity (less host growth inhibition); conditions: time post-induction: 4.5 h; library: site-saturation at positions 5, 18, 19, 20;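 note: peptides expressed intracellularly from a pBAD plasmid library in pooled LB shake-flask culture, induced with 0.3% L-arabinose, DNA abundance read by NGS, three biological replicates, DESeq2 with apeglm shrinkage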
What shrunken log2 fold change was measured for each of the following?

                  sequence  recordedresult
0  RRIRNRPPRLPRPRPRPQLDPRP           0.112
1  RRIRHRPPRLPRPRPRPIVMPRP          -0.012
2  RRIRVRPPRLPRPRPRPIPIPRP          -0.106
3  RRIRYRPPRLPRPRPRPVMLPRP          -0.256
4  RRIRSRPPRLPRPRPRPWWYPRP         -0.0611

# batch: return shrunken log2 fold change for each of the 4 sequences below
1. RRIRFRPPRLPRPRPRPAHTPRP
2. RRIRERPPRLPRPRPRPQRVPRP
3. RRIRERPPRLPRPRPRPDAMPRP
4. RRIRWRPPRLPRPRPRPQVHPRP

[-0.282, -0.167, -0.0916, 0.0992]

# batch: return shrunken log2 fold change for each of the 4 sequences below
1. RRIRHRPPRLPRPRPRPKFIPRP
2. RRIRMRPPRLPRPRPRPNDHPRP
3. RRIRERPPRLPRPRPRPMLVPRP
4. RRIRCRPPRLPRPRPRPVDWPRP

1. -0.192
2. -0.0869
3. -0.225
4. 1.33
